# Species on record: Homo sapiens
# ASSAY_INFO: Selectivity index, ratio of IC50 for ACAT1 (unknown origin) to IC50 for ACAT2 (unknown origin)
PROPERTY: Ratio IC50

1. C[C@@]12CO[C@@H](c3ccccc3)O[C@H]1CC[C@@]1(C)[C@H]2C[C@H](OC(=O)c2ccc(Br)cc2)[C@@]2(C)Oc3cc(-c4cccnc4)oc(=O)c3[C@H](O)[C@H]12
2. CCCCC(=O)O[C@H]1C[C@H]2[C@]3(C)CO[C@@H](c4ccccc4C)O[C@H]3CC[C@]2(C)[C@H]2[C@@H](O)c3c(cc(-c4cccnc4)oc3=O)O[C@]12C
3. Cc1ccc([C@@H]2OC[C@@]3(C)[C@@H]4C[C@H](OC(=O)c5ccc(C#N)cc5)[C@@]5(C)Oc6cc(-c7cccnc7)oc(=O)c6[C@H](O)[C@@H]5[C@@]4(C)CC[C@@H]3O2)c(C)c1
Enquiry: List from greatest to least Ratio IC50. Rank them, then answer with their labels in that order.
Return: 3, 1, 2

1. Cc1cccc([C@@H]2OC[C@@]3(C)[C@@H]4C[C@H](OC(=O)c5ccc(C#N)cc5)[C@@]5(C)Oc6cc(-c7cccnc7)oc(=O)c6[C@H](O)[C@@H]5[C@@]4(C)CC[C@@H]3O2)c1
2. CCCCC(=O)O[C@H]1C[C@H]2[C@]3(C)CO[C@@H](c4ccccc4)O[C@H]3CC[C@]2(C)[C@H]2[C@@H](O)c3c(cc(-c4cccnc4)oc3=O)O[C@]12C
3. C[C@@]12CO[C@@H](c3ccccc3)O[C@H]1CC[C@@]1(C)[C@H]2C[C@H](OC(=O)c2ccccc2Cl)[C@@]2(C)Oc3cc(-c4cccnc4)oc(=O)c3[C@H](O)[C@H]12
Enquiry: Arrange the 3 molecules from largest to smallest Ratio IC50. Rank them, then answer with their labels in that order.
Return: 1, 2, 3
(1: 478, 2: 200, 3: 16.2)

I. Cc1ccc([C@@H]2OC[C@@]3(C)[C@@H]4C[C@H](OC(=O)c5ccc(F)cc5)[C@@]5(C)Oc6cc(-c7cccnc7)oc(=O)c6[C@H](O)[C@@H]5[C@@]4(C)CC[C@@H]3O2)cc1
II. COc1ccccc1C(=O)O[C@H]1C[C@H]2[C@]3(C)CO[C@@H](c4ccccc4)O[C@H]3CC[C@]2(C)[C@H]2[C@@H](O)c3c(cc(-c4cccnc4)oc3=O)O[C@]12C
Enquiry: Returns: the argument ( I or II ) having the larger Ratio IC50. Returns: label corresponding to the selected item.
Return: I
